Kindly state fluorescence slope for each of the entries shown.
tgt: Muscarinic acetylcholine receptor M4 (Homo sapiens) (UniProt P08173)
Sequence (P08173 whole entry, looked up): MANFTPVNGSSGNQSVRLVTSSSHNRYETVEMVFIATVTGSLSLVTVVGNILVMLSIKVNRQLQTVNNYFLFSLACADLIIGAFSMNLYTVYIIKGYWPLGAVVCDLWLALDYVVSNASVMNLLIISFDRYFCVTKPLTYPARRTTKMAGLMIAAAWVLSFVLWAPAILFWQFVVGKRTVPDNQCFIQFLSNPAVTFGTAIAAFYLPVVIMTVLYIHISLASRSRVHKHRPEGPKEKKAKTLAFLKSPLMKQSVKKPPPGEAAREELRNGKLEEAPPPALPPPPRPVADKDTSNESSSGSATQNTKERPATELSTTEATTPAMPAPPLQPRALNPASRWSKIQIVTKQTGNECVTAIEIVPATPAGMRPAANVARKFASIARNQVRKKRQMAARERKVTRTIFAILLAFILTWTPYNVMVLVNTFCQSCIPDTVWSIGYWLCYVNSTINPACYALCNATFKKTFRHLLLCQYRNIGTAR
procedure.summary: compounds altering M4/GIRK thallium flux, either direction, primary screen, M4 allosteric agonist project, cell-based, HEK293 M4/GIRK, BTC-AM (AID 625);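 note: thallium influx through GIRK channels coupled to M4 in HEK293 cells with BTC-AM dye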
run.conditions: at 10 µM, actives lie on both sides
Keep it simple and answer with nothing but the number.

Incoming: Provide the documented fluorescence slope with Muscarinic acetylcholine receptor M4 (Homo sapiens) (UniProt P08173) as the system for CCCCSc1nc(N)c(C#N)c(-c2cccs2)c1C#N
Outgoing: 0.00886

Incoming: Field entry: Cc1ccc(-c2n[nH]c(=O)c3ccccc23)cc1S(=O)(=O)NCCN1CCOCC1
Outgoing: 0.00462

Incoming: Field entry: CCCCC(=O)NC(Nc1ccc(C)cn1)(C(=O)OCC)C(F)(F)F (configuration not stated)
Outgoing: 0.00419

Incoming: Field entry: CC1(C)C2CCC1(C)C(OC(=O)CC(=O)O)C2 (configuration not stated)
Outgoing: 0.00679

Incoming: Field entry: S=c1[nH]nc(-c2ccco2)n1C1CCCCC1
Outgoing: 0.00615

Incoming: Field entry: Cc1ccc(OCC(O)CNS(=O)(=O)c2ccccc2C(=O)O)cc1 (configuration not stated)
Outgoing: 0.00639

Incoming: Field entry: Cc1cc(=O)oc(C)c1C(=O)Nc1ccc2nsnc2c1
Outgoing: 0.00564

Incoming: Field entry: CCCCCNC(=O)C(C#N)c1nc2ccccc2nc1N1CC(C)OC(C)C1 (configuration not stated)
Outgoing: 0.00502

Incoming: Field entry: Cc1cc(CC(=O)O)c(C)cc1CC(=O)O
Outgoing: 0.00496

Incoming: Field entry: Cc1nn(CC(=O)NCCN2CCOCC2)c(=O)c2ccccc12
Outgoing: 0.00615

Incoming: Field entry: CC1(C)Cc2c(sc3ncn4nc(-c5ccco5)nc4c23)CO1
Outgoing: 0.00512

Incoming: Field entry: Cn1c(OCc2cccnc2)nc2c1c(=O)n(Cc1ccc(Br)cc1)c(=O)n2C
Outgoing: 0.00549

Incoming: Field entry: CSc1nc2sc3c(c2c2nnnn12)CCCC3
Outgoing: 0.00421

Incoming: Field entry: COc1ccc(C(=O)CCN2CCCCCC2)cc1
Outgoing: 0.00485

Incoming: Field entry: Cn1c(=O)c2c3c(sc2n2c(SCC(=O)c4ccccc4)nnc12)COC(C)(C)C3
Outgoing: 0.00374

Incoming: Field entry: Cc1ccc(N(CN2C(=O)C3CC=CCC3C2=O)C(=O)c2ccco2)cc1Cl (configuration not stated)
Outgoing: 0.00483

Incoming: Field entry: CCOC(=O)C1CCCN(c2nc3ccccc3nc2C(C#N)C(=O)OC(C)COC)C1 (configuration not stated)
Outgoing: 0.00181

Incoming: Field entry: COC(=O)c1ccccc1OCc1cccc(C)n1
Outgoing: 0.00518

Incoming: Field entry: CCOc1ccc(C2C(C#N)=C(N)Oc3cc(C)n(CCN4CCOCC4)c(=O)c32)cc1OCC (configuration not stated)
Outgoing: 0.0054

Incoming: Field entry: Nc1ccc2oc(-c3cc(Br)ccc3Cl)nc2c1
Outgoing: 0.00586

Incoming: Field entry: Cn1c(N)c(C#N)c(C#N)c1-c1ccccc1
Outgoing: 0.00399

Incoming: Field entry: CCC(NC(=O)Nc1ncccc1C)(C(F)(F)F)C(F)(F)F
Outgoing: 0.00598

Incoming: Field entry: CN(CCCCCNC(=O)/C=N/O)Cc1ccccc1
Outgoing: 0.00725

Incoming: Field entry: N#Cc1c(N)nc(SCC(=O)NCc2ccc3c(c2)OCO3)c(C#N)c1-c1cccs1
Outgoing: 0.00636

Incoming: Field entry: O=C1C2ON(c3ccccc3)C(c3cccnc3)C2C(=O)N1c1ccc(Cl)c(Cl)c1 (configuration not stated)
Outgoing: 0.00562

Incoming: Field entry: COCCCn1c2nc3ccccc3nc2c2c(=O)n(-c3ccccc3OC)c(C)nc21
Outgoing: 0.0072

Incoming: Field entry: Cn1cc(Cl)nc1C(O)c1ccccc1 (configuration not stated)
Outgoing: 0.00721

Attribution: PubChem BioAssay
